Item-by-item account of pEC50
biological target: cyno FGFR2b on cells (cyno, UniProt A0A2K5TL97 22-821); assay: flow cytometry, Expi293 cells overexpressing cyno FGFR2b
Sequence (A0A2K5TL97 entry or part of it): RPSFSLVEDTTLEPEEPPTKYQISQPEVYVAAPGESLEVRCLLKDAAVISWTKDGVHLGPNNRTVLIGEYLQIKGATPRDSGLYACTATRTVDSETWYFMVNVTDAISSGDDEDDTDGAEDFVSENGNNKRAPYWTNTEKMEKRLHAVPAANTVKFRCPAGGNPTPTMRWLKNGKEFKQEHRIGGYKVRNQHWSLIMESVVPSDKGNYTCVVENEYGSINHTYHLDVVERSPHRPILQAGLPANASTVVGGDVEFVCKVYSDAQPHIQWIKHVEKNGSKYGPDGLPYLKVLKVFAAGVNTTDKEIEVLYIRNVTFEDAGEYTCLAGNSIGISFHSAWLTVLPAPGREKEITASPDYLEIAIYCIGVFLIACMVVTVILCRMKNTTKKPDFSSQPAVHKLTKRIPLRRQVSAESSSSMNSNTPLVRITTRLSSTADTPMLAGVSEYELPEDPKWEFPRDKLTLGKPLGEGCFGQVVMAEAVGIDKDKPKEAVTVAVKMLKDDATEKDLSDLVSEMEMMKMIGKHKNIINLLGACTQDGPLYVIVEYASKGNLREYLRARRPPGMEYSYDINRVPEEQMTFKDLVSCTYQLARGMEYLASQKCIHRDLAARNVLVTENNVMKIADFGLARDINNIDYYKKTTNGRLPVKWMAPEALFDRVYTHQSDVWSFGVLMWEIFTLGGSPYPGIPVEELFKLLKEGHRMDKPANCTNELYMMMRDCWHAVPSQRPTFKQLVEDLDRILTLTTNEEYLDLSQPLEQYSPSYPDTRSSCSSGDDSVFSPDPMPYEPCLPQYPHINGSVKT
Please express pEC50 as -log10 of the molar concentration.

BGAh9239 (antibody, human IgG1, kappa, V domains shown, also called humanized antibody developed from BGAm1823) VH: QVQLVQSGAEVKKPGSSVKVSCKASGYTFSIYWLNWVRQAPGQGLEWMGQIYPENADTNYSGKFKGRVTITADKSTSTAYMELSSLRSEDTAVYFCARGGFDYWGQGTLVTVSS VL: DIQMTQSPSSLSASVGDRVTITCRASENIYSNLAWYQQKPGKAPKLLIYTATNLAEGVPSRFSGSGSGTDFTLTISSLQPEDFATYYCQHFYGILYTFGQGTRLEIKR = 8.10
BGAh9179 (antibody, human IgG1, kappa, V domains shown, also called BGA9179; humanized antibody developed from BGAm1371) VH: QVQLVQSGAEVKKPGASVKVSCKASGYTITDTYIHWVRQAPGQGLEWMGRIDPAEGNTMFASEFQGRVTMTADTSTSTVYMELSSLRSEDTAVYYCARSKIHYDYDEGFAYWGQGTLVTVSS VL: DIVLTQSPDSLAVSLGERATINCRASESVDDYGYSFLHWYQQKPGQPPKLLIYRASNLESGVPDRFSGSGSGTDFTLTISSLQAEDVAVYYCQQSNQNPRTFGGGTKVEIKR = 8.07
BGAm1371 (antibody, V domains shown, assays detect or capture it with anti-human IgG; also called parental mouse clone; murine parental antibody of BGAh9179) VH: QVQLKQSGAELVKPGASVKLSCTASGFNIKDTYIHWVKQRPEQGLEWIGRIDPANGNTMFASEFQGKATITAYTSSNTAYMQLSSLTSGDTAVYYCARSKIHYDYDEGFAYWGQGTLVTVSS VL: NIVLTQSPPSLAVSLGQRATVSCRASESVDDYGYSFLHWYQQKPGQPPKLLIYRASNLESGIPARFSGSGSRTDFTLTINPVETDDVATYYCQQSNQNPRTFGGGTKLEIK = 8.33

Ask: Requested field: pEC50. Item: BGAm1823 (antibody, V domains shown, assays detect or capture it with anti-human IgG; also called murine parental antibody of BGAh9239) VH: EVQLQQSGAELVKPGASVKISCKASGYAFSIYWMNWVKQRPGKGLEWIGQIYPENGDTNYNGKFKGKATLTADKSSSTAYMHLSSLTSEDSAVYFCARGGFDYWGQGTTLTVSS VL: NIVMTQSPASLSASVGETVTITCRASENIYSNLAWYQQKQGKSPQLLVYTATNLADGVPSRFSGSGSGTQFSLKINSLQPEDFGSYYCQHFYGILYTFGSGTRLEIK
Reply: 8.20
